The reported measurements were obtained from patent US20220017630A1.

# target.desc: T1, human TNFR2 (Novoprotein, Catalog No. C830) (human, UniProt P20333 23-257, limits assumed)
# T1 construct: construct not described; also called TNFR2 protein
# T1 sequence (looked up): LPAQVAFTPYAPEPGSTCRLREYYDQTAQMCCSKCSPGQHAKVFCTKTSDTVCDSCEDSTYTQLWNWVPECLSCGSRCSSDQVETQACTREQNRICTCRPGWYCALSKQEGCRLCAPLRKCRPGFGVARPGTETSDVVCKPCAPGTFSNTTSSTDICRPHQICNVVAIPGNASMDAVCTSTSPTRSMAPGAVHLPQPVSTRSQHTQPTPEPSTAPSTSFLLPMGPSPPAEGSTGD
# experimental.protocol: blocking ELISA, TNFα-biotin on coated human TNFR2, antibody 2 nM
Recorded measurements of ELISA OD of antibodies to be tested (2 nM), one per entry
Respond numerically; units are OD and should not be typed.

binder	assay.result
TNFR2 antibody #224 (antibody, V domains shown) VH: EVQLQESGPEIVKPGASVKLSCTASGFNNKDIYMHWVKQRPEQGLEWIGRIDPATGNTKHDPKFQDKATLSSDTSSNTAYLQFSSLTSEDTAVYYCAHSPYGDFGAMDYWGQGTTVTVSS VL: DIQMTQSPAIMSASLGERVTMTCTASSSVSSNYLHWYQQKPGSSPKLWIYSTSNLPSGVPARFSGSGSGTSYSLTISSMEAEDAATYYCHQYHRSPWTFGGGTKLEIK	1.44

Then there is this binder:
Query block: State the recorded ELISA OD of antibodies to be tested (2 nM) for this entry: TNFR2 antibody #395 (antibody, V domains shown) VH: EVQLQESGPVLVQPSQSLSITCTVSGFSLTSYSVHWVRQSPGKGLEWLGVIWSDGGTDYSAAFISRLSISKDNSKSQVFFKMNSLQADDTAIYYCARNDDGGDYAMDYWGQGTTVTVSS VL: EIVLTQSPALMSASPGEKVTMTCSASSSVSYMYWYQQKPRSSPKPWIYLTSNLASGVPARFSGSGSGTSYSLTISSMEAEDAATYYCQQWSSNPLTFGAGTKLEIK
Result block: 1.14
